Sourced from patent US8987267B2

target: FLTINEGFRI (Homo sapiens, UniProt P17948)
Sequence (P17948 27-1338): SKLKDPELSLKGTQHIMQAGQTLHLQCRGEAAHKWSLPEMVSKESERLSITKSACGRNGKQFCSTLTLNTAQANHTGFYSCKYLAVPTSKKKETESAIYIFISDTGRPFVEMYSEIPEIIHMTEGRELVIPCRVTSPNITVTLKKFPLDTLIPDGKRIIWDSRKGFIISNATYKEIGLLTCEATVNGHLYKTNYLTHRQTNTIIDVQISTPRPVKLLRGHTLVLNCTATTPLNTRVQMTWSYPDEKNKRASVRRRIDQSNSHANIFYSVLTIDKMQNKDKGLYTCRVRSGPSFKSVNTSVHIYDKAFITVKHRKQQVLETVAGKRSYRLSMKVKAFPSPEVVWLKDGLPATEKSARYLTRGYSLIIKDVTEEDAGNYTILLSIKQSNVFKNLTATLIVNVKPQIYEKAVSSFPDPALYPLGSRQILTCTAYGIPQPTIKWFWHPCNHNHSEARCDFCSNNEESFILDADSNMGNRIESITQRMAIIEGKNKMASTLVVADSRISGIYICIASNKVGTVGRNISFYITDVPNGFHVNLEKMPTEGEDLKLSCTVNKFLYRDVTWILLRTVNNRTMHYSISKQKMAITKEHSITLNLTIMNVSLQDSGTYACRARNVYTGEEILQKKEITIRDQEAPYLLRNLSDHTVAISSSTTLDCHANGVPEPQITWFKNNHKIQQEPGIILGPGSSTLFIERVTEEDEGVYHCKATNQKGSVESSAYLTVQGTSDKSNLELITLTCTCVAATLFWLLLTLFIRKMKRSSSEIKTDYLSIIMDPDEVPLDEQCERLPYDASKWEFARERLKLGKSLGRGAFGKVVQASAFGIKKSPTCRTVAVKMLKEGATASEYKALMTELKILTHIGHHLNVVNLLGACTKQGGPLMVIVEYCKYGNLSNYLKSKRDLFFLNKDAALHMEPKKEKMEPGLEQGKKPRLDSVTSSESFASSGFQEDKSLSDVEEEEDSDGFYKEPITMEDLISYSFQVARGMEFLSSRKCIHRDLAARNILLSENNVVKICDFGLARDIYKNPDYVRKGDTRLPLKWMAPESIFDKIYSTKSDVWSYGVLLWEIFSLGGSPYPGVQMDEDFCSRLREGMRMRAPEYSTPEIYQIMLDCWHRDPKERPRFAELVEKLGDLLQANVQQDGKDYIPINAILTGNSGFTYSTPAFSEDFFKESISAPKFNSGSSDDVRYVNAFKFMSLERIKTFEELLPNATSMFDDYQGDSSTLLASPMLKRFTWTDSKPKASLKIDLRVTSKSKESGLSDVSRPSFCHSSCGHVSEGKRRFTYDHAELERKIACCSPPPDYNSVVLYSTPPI
valueKind: IC50 (µM)

> print(dat)
                                   molecule                                    system  measurementunits  experimentalresult
1  CN1CCN(c2ccc(Nc3ncc4cc(C#N)c(=O)n(C5CCCC5)c4n3)cc2)CC1 [Compound 12]  FLTINEGFRI (Homo sapiens, UniProt P17948)                µM              0.0941

----------
target: CDK9/cyclinT1 (Homo sapiens); assay: Kinase inhibition panel; conditions: 10 μM ATP
pIC50: −log10 of the molar value.
valueKind: pIC50

> print(dat)
                                   compound  valuekind  experimentalresult
1  CN1CCN(c2ccc(Nc3ncc4cc(C#N)c(=O)n(C5CCCC5)c4n3)cc2)CC1 [Compound 12]      pIC50                7.07

----------
molecular target: SIK2/SNF1LK2 (Homo sapiens, UniProt Q9H0K1); experiment: Kinase inhibition panel; conditions: 10 μM ATP
Sequence (Q9H0K1 whole entry): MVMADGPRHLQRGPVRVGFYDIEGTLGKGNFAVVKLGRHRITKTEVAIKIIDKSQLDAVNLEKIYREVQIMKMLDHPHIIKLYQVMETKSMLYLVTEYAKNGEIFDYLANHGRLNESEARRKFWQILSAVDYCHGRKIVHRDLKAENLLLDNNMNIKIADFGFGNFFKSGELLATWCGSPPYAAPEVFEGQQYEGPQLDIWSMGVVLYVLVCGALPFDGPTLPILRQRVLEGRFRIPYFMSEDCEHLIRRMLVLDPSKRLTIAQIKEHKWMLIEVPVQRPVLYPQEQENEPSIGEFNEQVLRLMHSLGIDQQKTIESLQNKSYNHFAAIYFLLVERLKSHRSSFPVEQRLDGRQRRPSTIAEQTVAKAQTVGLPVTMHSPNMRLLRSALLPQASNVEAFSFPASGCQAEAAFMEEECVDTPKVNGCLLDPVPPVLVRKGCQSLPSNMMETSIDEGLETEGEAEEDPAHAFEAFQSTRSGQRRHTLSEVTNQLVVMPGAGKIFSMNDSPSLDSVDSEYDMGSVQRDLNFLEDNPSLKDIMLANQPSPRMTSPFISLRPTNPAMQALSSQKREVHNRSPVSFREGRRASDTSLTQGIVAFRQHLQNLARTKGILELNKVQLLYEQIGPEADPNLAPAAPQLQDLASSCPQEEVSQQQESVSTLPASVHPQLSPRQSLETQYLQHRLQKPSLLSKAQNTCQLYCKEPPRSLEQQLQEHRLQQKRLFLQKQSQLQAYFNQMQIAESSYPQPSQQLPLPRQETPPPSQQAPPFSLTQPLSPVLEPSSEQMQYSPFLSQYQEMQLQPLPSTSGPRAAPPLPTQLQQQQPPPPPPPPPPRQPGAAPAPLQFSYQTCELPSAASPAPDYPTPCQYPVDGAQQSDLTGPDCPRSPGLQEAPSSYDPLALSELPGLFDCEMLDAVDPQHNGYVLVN
valueKind: IC50 (nM)

> print(dat)
                                   compound  experimentalresult
1  CN1CCN(c2ccc(Nc3ncc4cc(C#N)c(=O)n(C5CCCC5)c4n3)cc2)CC1 [Compound 12]                96.8

----------
molecular target: LYN (Homo sapiens)
Sequence (P07948 whole entry, species assumed): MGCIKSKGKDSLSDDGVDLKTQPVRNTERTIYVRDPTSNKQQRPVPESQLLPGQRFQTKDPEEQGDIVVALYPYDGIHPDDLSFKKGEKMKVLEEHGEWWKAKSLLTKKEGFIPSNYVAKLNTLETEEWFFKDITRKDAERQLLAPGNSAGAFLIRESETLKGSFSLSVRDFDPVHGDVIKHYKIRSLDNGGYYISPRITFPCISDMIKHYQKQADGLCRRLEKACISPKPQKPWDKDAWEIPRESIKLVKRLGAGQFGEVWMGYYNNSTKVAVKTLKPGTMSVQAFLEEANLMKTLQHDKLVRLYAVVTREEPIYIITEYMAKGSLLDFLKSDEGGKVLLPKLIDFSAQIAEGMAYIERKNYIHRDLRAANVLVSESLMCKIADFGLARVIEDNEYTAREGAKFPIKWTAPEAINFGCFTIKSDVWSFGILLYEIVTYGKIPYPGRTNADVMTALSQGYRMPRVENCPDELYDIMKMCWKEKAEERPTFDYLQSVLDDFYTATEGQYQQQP
valueKind: IC50 (nM)

> print(dat)
                                  molsmiles              system  experimentalresult
1  CN1CCN(c2ccc(Nc3ncc4cc(C#N)c(=O)n(C5CCCC5)c4n3)cc2)CC1  LYN (Homo sapiens)                68.5

----------
target: PKCnu/PRK D3 (Homo sapiens, UniProt O94806); assay: Kinase inhibition panel; details: 10 μM ATP
pIC50: −log10 of the molar value.
valueKind: pIC50

> print(dat)
                                   compound  experimentalresult
1  CN1CCN(c2ccc(Nc3ncc4cc(C#N)c(=O)n(C5CCCC5)c4n3)cc2)CC1 [Compound 12]                7.25

----------
target: ZAK/MLTK (Homo sapiens, UniProt Q9NYL2); assay: Kinase inhibition panel; settings: 10 μM ATP
Sequence (Q9NYL2 whole entry): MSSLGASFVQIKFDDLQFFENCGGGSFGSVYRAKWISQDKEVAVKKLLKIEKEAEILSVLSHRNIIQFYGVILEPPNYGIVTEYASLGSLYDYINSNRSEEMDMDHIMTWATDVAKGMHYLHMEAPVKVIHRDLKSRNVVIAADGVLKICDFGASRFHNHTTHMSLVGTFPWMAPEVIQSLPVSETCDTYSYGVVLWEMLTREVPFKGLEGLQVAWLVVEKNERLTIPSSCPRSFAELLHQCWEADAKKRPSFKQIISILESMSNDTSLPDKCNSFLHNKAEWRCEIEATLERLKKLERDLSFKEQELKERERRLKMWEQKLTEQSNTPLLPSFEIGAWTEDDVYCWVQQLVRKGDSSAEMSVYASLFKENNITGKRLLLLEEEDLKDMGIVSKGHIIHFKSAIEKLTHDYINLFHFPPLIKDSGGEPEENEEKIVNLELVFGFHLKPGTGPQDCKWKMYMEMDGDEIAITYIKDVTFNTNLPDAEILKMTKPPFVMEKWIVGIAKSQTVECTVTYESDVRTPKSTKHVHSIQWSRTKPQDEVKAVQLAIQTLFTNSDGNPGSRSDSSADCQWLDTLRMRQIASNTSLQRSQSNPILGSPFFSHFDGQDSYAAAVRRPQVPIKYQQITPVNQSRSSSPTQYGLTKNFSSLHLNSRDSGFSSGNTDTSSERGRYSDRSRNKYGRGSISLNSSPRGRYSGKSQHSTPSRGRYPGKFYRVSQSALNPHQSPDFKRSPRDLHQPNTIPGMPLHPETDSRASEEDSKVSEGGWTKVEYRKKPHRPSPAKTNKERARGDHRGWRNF
pIC50: −log10 of the molar value.
valueKind: pIC50

> print(dat)
                                  molsmiles                                   system  valuekind  experimentalresult
1  CN1CCN(c2ccc(Nc3ncc4cc(C#N)c(=O)n(C5CCCC5)c4n3)cc2)CC1  ZAK/MLTK (Homo sapiens, UniProt Q9NYL2)      pIC50                7.53

----------
target: EphB2/HEK5 (Homo sapiens); assay: Kinase inhibition panel; conditions: 10 μM ATP
valueKind: IC50 (nM)

> print(dat)
                                   compound  experimentalresult
1  CN1CCN(c2ccc(Nc3ncc4cc(C#N)c(=O)n(C5CCCC5)c4n3)cc2)CC1 [Compound 12]                 130

----------
molecular target: UniProtKB P00519; experiment: Kinase inhibition panel; assay type: biochemical; conditions: 10 μM ATP
Sequence (P00519 whole entry, species assumed): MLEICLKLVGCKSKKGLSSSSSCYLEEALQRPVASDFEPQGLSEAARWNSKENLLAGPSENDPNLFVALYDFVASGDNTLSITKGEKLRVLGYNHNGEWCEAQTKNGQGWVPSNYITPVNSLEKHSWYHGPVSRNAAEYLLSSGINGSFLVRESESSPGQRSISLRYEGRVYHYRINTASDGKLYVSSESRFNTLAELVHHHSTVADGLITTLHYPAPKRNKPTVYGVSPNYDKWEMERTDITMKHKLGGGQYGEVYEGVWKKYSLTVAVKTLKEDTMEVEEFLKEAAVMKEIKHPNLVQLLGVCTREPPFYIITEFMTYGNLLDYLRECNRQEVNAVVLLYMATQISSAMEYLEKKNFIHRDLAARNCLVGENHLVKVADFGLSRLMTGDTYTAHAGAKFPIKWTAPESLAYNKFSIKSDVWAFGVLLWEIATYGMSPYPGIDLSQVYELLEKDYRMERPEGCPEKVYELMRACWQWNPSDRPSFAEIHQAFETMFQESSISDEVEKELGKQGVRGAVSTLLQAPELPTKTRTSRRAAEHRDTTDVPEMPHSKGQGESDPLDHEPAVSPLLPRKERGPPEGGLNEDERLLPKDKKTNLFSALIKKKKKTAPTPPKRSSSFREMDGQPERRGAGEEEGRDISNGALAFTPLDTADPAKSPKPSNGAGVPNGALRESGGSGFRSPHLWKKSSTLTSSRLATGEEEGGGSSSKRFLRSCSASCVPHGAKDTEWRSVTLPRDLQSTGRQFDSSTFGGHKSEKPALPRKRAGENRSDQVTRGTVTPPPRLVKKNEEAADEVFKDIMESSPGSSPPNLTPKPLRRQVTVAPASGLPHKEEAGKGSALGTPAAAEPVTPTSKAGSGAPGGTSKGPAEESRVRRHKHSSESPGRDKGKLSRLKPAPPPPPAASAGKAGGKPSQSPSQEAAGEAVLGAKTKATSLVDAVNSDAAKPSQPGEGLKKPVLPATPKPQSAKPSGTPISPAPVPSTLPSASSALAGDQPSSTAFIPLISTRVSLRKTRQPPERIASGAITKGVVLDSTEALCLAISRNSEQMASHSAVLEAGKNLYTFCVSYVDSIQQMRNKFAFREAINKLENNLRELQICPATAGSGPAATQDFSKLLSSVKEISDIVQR
valueKind: IC50 (nM)

> print(dat)
                                  molsmiles  valuekind  experimentalresult
1  CN1CCN(c2ccc(Nc3ncc4cc(C#N)c(=O)n(C5CCCC5)c4n3)cc2)CC1       IC50                75.6
